FYI, the data here is from patent US5235061A.

Tested on: Fusarium moniliforme
Experiment: In vitro percent disease control (radii of spore growth on agar)
Format: cell-based
Conditions: 50 ppm
Label yes for high-side % controlled, Fu. mo. (at or above 60%) and no for low-side % controlled, Fu. mo. (below it).

Worked set:
C=CC[Si](C[Si](C)(Cn1cncn1)c1ccc(F)cc1)(c1ccc(F)cc1)c1ccc(F)cc1 (centres unmarked)    no
C=CC[Si](C[Si](C)(Cn1cncn1)c1ccc(OCC)cc1)(c1ccccc1)c1ccc(-c2ccccc2)cc1 (centres unmarked)    yes
C=CC[Si](C)(Cn1cncn1)C[Si](CC=C)(c1ccc(F)cc1)c1ccc(F)cc1 (centres unmarked)    yes

Would you say CCOc1ccc([Si](C)(C)C[Si](C)(Cn2cncn2)c2ccc(F)cc2)cc1 (centres unmarked) shows % controlled, Fu. mo. at minimum 60%? no

Tell me whether % controlled, Fu. mo. is at least 60% here: `C[Si](C)(C)C[Si](Cn1cncn1)(c1ccc(Cl)cc1)c1ccc(Cl)cc1` no

Given `C=CC[Si](CC=C)(Cn1cncn1)C[Si](CC=C)(CC=C)c1ccccc1` , state whether its % controlled, Fu. mo. is at least 60%. no

Hi, just wondering whether C[Si](C)(C[Si](C)(Cn1cncn1)c1ccc(F)cc1)c1ccc(F)cc1 (centres unmarked) shows % controlled, Fu. mo. of 60% or higher. no

% controlled, Fu. mo. >= 60% for CCOc1ccc([Si](C)(C)C[Si](Cn2cncn2)(c2ccc(F)cc2)c2ccc(Cl)cc2)cc1 (centres unmarked) ? no

Hello, I need to know if C[Si](C)(C)C[Si](C)(Cn1cncn1)c1ccc(F)cc1 (centres unmarked) has measured % controlled, Fu. mo. not below 60%. Thanks! yes

Textbook exercise: given the entry C[Si](C)(C[Si](C)(Cn1cncn1)c1ccc(Cl)cc1)c1ccc(F)cc1 (centres unmarked) , state whether its % controlled, Fu. mo. is greater than or equal to 60%. no

Hi team, for `C[Si](C)(C[Si](Cn1cncn1)(c1ccc(F)cc1)c1ccc(F)cc1)c1ccc(-c2ccccc2)cc1` , is the recorded % controlled, Fu. mo. at or above 60%? no

* * *

Tested on: Phytophthora capsisi
Assay: In vitro percent disease control (radii of spore growth on agar)
Format: cell-based
Conditions: Phytophthora; 50 ppm; read-out: % controlled, Phy ca.
Rule: rule met for inhibition of growth at 50 ppm not less than 40%, rule not met for anything less.

C[Si](C)(C[Si](C)(Cn1cncn1)c1ccc(F)cc1)c1ccc(Cl)cc1 (stereo not shown)    rule met

Evaluate COc1ccc([Si](Cn2cncn2)(C[Si](C)(C)c2ccc(Cl)cc2)c2ccc(Cl)cc2)cc1 (stereo not shown) : inhibition of growth at 50 ppm at minimum 40%? rule met

Is it the case that C[Si](C)(C)C[Si](C)(Cn1cncn1)c1ccc(F)cc1 (stereo not shown) has inhibition of growth at 50 ppm reaching or exceeding 40%? rule not met

Item C=CC[Si](C[Si](C)(Cn1cncn1)c1ccc(OCC)cc1)(c1ccccc1)c1ccc(-c2ccccc2)cc1 (stereo not shown) with inhibition of growth at 50 ppm of 40% or above? rule met

# check: inhibition of growth at 50 ppm of C[Si](C)(C[Si](C)(Cn1cncn1)c1ccc(Cl)cc1)c1ccc(F)cc1 (stereo not shown) is greater than or equal to 40% rule not met

Record C=CC[Si](C)(Cn1cncn1)C[Si](CC=C)(c1ccccc1)c1ccccc1 (stereo not shown) ; criterion: inhibition of growth at 50 ppm no lower than 40%. Met? rule not met

* * *

Tested on: Fusarium moniliforme
Assay: In vitro percent disease control (radii of spore growth on agar)
Format: cell-based
Conditions: 50 ppm
Endpoint: % controlled, Fu. mo. (%)
Please reply with the bare figure in % and do not write the unit itself.

C[Si](C)(C)C[Si](Cn1cncn1)(c1ccc(F)cc1)c1ccc(F)cc1    31

Entry C=CC[Si](C[Si](C)(Cn1cncn1)c1ccc(F)cc1)(c1ccccc1)c1ccc(-c2ccccc2)cc1 (stereo not drawn) , % controlled, Fu. mo. reported as 100

C=CC[Si](Cn1cncn1)(C[Si](CC=C)(c1ccc(F)cc1)c1ccc(-c2ccccc2)cc1)c1ccc(F)cc1 (stereo not drawn) yielded % controlled, Fu. mo. of 40

Form field % controlled, Fu. mo., entry `C[Si](C)(C[Si](Cn1cncn1)(c1ccc(F)cc1)c1ccc(F)cc1)c1ccc(Cl)cc1` : 45

Looking up C[Si](C)(Cc1ccc(F)cc1)C[Si](C)(Cn1cncn1)c1ccc(F)cc1 (stereo not drawn) , I see its % controlled, Fu. mo. listed as 34

Form field % controlled, Fu. mo., entry C[Si](C)(C[Si](C)(Cn1cncn1)c1ccc(Cl)cc1)c1ccc(Cl)cc1 (stereo not drawn) : 48

// recorded % controlled, Fu. mo. for C=CC[Si](C)(Cn1cncn1)C[Si](CC=C)(c1ccc(OCC)cc1)c1ccc(OCC)cc1 (stereo not drawn) : 100

Input C[Si](C)(C[Si](C)(Cn1cncn1)c1ccc(F)cc1)c1ccc(Cl)cc1 (stereo not drawn) . Output % controlled, Fu. mo.: 67

Short answer for `CCOc1ccc([Si](Cn2cncn2)(C[Si](C)(C)c2ccc(F)cc2)c2ccc(OCC)cc2)cc1` : % controlled, Fu. mo. was 58

* * *

System: Fusarium moniliforme
Assay: In vitro percent disease control (radii of spore growth on agar)
Type: cell-based
Details: 100 ppm
This section presents compounds with their documented % controlled, Fu. mo. values.
Please reply with the bare figure in % and do not write the unit itself.

CCOc1ccc([Si](C)(C)C[Si](Cn2cncn2)(c2ccc(F)cc2)c2ccc(Cl)cc2)cc1 (centres unmarked)    46
C=CC[Si](C[Si](C)(Cn1cncn1)c1ccc(F)cc1)(c1ccccc1)c1ccc(-c2ccccc2)cc1 (centres unmarked)    100
C=CC[Si](CC=C)(Cn1cncn1)C[Si](CC=C)(CC=C)c1ccccc1    46

% controlled, Fu. mo. reported for this compound C[Si](C)(C[Si](C)(Cn1cncn1)c1ccc(Cl)cc1)c1ccc(Cl)cc1 (centres unmarked) : 57

C=CC[Si](C)(Cn1cncn1)C[Si](CC=C)(c1ccccc1)c1ccc(-c2ccccc2)cc1 (centres unmarked) has a reported % controlled, Fu. mo. of 100

* * *

Test system: Rhizopus sp.
Assay: In vitro percent disease control (radii of spore growth on agar)
Assay type: cell-based
Settings: Rhizopus, 100 ppm; read-out: % controlled, Rhi. sp.
Endpoint: inhibition of growth at 100 ppm (%)
Give the value, in units of %, as a plain number.

C[Si](C)(C[Si](C)(Cn1cncn1)c1ccc(Cl)cc1)c1ccc(F)cc1 (stereo not drawn)    20
C=CC[Si](CC=C)(Cn1cncn1)C[Si](CC=C)(CC=C)c1ccccc1    50
C=CC[Si](C)(Cn1cncn1)C[Si](CC=C)(c1ccccc1)c1ccccc1 (stereo not drawn)    100

Record `C[Si](C)(C[Si](Cn1cncn1)(c1ccc(F)cc1)c1ccc(F)cc1)c1ccc(-c2ccccc2)cc1` . Reported inhibition of growth at 100 ppm: 29

* * *

Tested on: Botry tris cinerea
Assay: In vitro percent disease control (radii of spore growth on agar)
Assay type: cell-based
Conditions: 100 ppm; read-out: % controlled, Bo ci.
// reported inhibition of growth at 100 ppm for each item listed
Please respond with the number in % and leave the unit unwritten.

Examples with their reported inhibition of growth at 100 ppm follow.
C[Si](C)(Cc1ccc(F)cc1)C[Si](C)(Cn1cncn1)c1ccc(F)cc1 (centres unmarked)    0
C[Si](C)(C[Si](C)(Cn1cncn1)c1ccc(F)cc1)c1ccc(-c2ccccc2)cc1 (centres unmarked)    90
C[Si](C)(C[Si](C)(Cn1cncn1)c1ccc(F)cc1)c1ccc(Cl)cc1 (centres unmarked)    100
C=CC[Si](CC=C)(Cn1cncn1)C[Si](CC=C)(c1ccc(F)cc1)c1ccc(-c2ccccc2)cc1 (centres unmarked)    100
C=CC[Si](C[Si](C)(Cn1cncn1)c1ccc(F)cc1)(c1ccccc1)c1ccc(-c2ccccc2)cc1 (centres unmarked)    100
C[Si](C)(C[Si](Cn1cncn1)(c1ccc(F)cc1)c1ccc(F)cc1)c1ccc(Cl)cc1    80

Lab note: CCOc1ccc([Si](C)(C)C[Si](C)(Cn2cncn2)c2ccc(F)cc2)cc1 (centres unmarked) gave inhibition of growth at 100 ppm of 66

// inhibition of growth at 100 ppm lookup, compound = `C=CC[Si](CC=C)(Cn1cncn1)C[Si](CC=C)(CC=C)c1ccccc1` , result: 96

Value of inhibition of growth at 100 ppm reported for the compound `CCOc1ccc([Si](Cn2cncn2)(C[Si](C)(C)c2ccc(F)cc2)c2ccc(OCC)cc2)cc1` is 66

// inhibition of growth at 100 ppm value for C=CC[Si](C[Si](C)(Cn1cncn1)c1ccc(OCC)cc1)(c1ccccc1)c1ccc(-c2ccccc2)cc1 (centres unmarked) : 85

Documented inhibition of growth at 100 ppm of C=CC[Si](C)(Cn1cncn1)C[Si](CC=C)(CC=C)c1ccc(F)cc1 (centres unmarked) : 95
